System: COLO 205 colon
Assay: NCI-60 one-dose screen, 48 h
Conditions: 10 µM unless noted
About 83,000 compounds went through this panel and 20% of them were active in at least one assay; those are over-represented in the sample as a whole. Active and inactive are the calls of the source. How the source made its calls: active means growth percent below 10; inactive means the rest.
Outcome codes: yes (active), no (inactive)

- COMPOUND: "CCCCCCCS(=O)(=O)N1CCCC(C(=O)Nc2nc3ccc(NC(=O)c4ccc(F)c(OC)c4F)cc3s2)C1 (centres undefined)"
  TARGET: "COLO 205 colon"
  GROUP: "no"
- COMPOUND: "COc1cc(CNC(=O)/C=C/c2ccc3c(c2)OCO3)ccc1OCc1cn(-c2ccc([N+](=O)[O-])cc2)nn1"
  TARGET: "COLO 205 colon"
  GROUP: "no"
- COMPOUND: "CCCCCCCCc1ccc(C(=O)Nc2ccc(C)cc2C(=O)O)cc1C"
  TARGET: "COLO 205 colon"
  GROUP: "no"
- COMPOUND: "CN(C)c1ccnc(CNCCSC2(c3ccc(C(F)(F)F)cc3)c3ccccc3C=Cc3ccccc32)c1"
  TARGET: "COLO 205 colon"
  GROUP: "yes"
- COMPOUND: "COc1cc(OC)cc(C(=O)Nc2cccc(-c3cn(-c4ccc(S(N)(=O)=O)cc4)nn3)c2)c1"
  TARGET: "COLO 205 colon"
  GROUP: "no"
- COMPOUND: "Cc1ccc(NC(=O)[C@]23CCC(C)(C)CC2C2=CCC4[C@@]5(C)C[C@@H](O)[C@H](O)[C@@](C)(CO)C5CC[C@@]4(C)[C@]2(C)CC3)cc1 (some centres undefined)"
  TARGET: "COLO 205 colon"
  GROUP: "yes"
- COMPOUND: "C=CC[N+](C)(C)CCn1c2ccccc2c2nc3cc(C)c(C)cc3nc21"
  TARGET: "COLO 205 colon"
  GROUP: "no"
- COMPOUND: "Brc1ccc(N/N=C/c2c[nH]c3ccc(Br)cc23)nc1"
  TARGET: "COLO 205 colon"
  GROUP: "yes"
- COMPOUND: "COc1ccc2nc(Nc3cccc(NC(=O)c4ccc(CN5CCCN(C)CC5)c(C(F)(F)F)c4)c3)ccc2c1"
  TARGET: "COLO 205 colon"
  GROUP: "yes"

Reference for the values: PubChem BioAssay (NCI)
